measured target: HER3 extracellular domain (HER3ECD, ErbB3) (Homo sapiens, UniProt P21860 SEQ:20-643)
Sequence (P21860 20-643 E560G): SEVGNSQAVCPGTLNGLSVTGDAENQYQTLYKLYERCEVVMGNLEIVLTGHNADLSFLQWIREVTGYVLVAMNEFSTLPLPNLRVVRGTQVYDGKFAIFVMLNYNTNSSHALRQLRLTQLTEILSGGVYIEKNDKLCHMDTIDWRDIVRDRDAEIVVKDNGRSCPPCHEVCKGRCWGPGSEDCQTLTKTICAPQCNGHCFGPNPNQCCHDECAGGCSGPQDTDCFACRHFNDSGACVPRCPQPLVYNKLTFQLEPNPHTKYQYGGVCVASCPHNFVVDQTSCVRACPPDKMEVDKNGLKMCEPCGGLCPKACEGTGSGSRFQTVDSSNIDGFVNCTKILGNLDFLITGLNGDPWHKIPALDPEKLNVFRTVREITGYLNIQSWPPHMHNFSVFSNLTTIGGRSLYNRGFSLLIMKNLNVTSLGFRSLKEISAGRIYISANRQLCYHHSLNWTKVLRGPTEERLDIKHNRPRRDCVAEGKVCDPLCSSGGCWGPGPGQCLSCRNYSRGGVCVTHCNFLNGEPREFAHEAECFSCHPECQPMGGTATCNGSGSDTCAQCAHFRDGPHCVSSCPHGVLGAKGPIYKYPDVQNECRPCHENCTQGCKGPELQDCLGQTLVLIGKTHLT
procedure text: EMSA; apparent Kd by displacement with unlabeled A30; no heregulin; 10 mM HEPES pH 7.4, 100 mM NaCl, 2.5 mM MgCl2, 37 C, 0.5 uM tRNA
protocol conditions: tags: C-terminal V5 and hexa-His (pMT/BiP/V5-His A, S2 insect cells); chain copies: oligomeric (self-associated; stated); label: internal 32P; triple hairpin loop
pKd: −log10 of the molar value.
property: pKd

{"binder": "A30 (ssRNA) RNA: GGGAAUUCCGCGUGUGCCAGCGAAAGUUGCGUAUGGGUCACAUCGCAGGCACAUGUCAUCUGGGCGGUCCGUUCGGGAUCCUC", "number": 7.35}
